Where do the numbers come from? From patent US20230303551A1.

# Tested on: RKO cells
# experimental_details: Cell viability (Cell-Titer Glo), RKO
# Assay type: cell-based
# condition_details: Homo sapiens, 72 h

smiles_notation	IC50
CC(C)(C)c1nc(-c2cccc(NS(=O)(=O)c3c(F)cccc3F)c2F)c(-c2ccnc(N)n2)s1	> 400 nM
COC(=O)N[C@@H](C)CNc1nccc(-c2cn(C(C)C)nc2-c2cc(Cl)cc(NS(C)(=O)=O)c2F)n1	> 400 nM
CCCS(=O)(=O)Nc1ccc(F)c(C(=O)c2c[nH]c3ncc(-c4ccc(Cl)cc4)cc23)c1F	> 400 nM
COC(=O)N[C@@H](C)CNc1nccc(-c2sc(C(C)(C)C)nc2-c2cccc(NS(=O)(=O)c3c(F)cccc3F)c2F)n1	20 nM

---

# Lookup of reported IC50 keyed by entry
# Tested on: A375 cells
# experimental_details: Cell viability (Cell-Titer Glo), A375
# Assay type: cell-based
# condition_details: Homo sapiens, A-375; A375, 72 hr

smiles_notation	IC50, nM
CC(C)(C)c1nc(-c2cccc(NS(=O)(=O)c3c(F)cccc3F)c2F)c(-c2ccnc(N)n2)s1	5.3
COC(=O)N[C@@H](C)CNc1nccc(-c2sc(C(C)(C)C)nc2-c2cccc(NS(=O)(=O)c3c(F)cccc3F)c2F)n1	3.4

---

# System: SK-MEL-239-C4 cells
# experimental_details: Cell viability (Cell-Titer Glo), SK-MEL-239-C4
# Assay type: cell-based
# condition_details: SK-MEL-239-C4, 72 hr
Reported IC50 values follow for various compounds

smiles_notation	target	measure_unit	IC50
COC(=O)N[C@@H](C)CNc1nccc(-c2sc(C(C)(C)C)nc2-c2cccc(NS(=O)(=O)c3c(F)cccc3F)c2F)n1	SK-MEL-239-C4 cells	µM	0.0353
CC(C)(C)c1nc(-c2cccc(NS(=O)(=O)c3c(F)cccc3F)c2F)c(-c2ccnc(N)n2)s1	SK-MEL-239-C4 cells	µM	0.456
